biological target: SARS-CoV-2 spike RBD protein (Severe acute respiratory syndrome coronavirus 2, UniProt P0DTC2)
measure: Kd
Answer format reminder: number followed by unit.

smiles representation: O=c1c(O)c(-c2ccc(O)cc2)oc2cc(O)cc(O)c12
endpoint value: 18.5 µM

Quickly give me recorded Kd for O=c1c(O)c(-c2ccc(O)c(O)c2)oc2cc(O)cc(O)c12
11.2 µM

* * *

test system: SARS-CoV-2 pseudovirus; details: read-out: IC50 (inhibition of pseudovirus entry into host cells)
// reported IC50 for each item listed
A number alone suffices; assume µM.

compound: O=C(O[C@@H]1Cc2c(O)cc(O)cc2O[C@@H]1c1cc(O)c(O)c(O)c1)c1cc(O)c(O)c(O)c1 [compound 25, (-)-Epigallocatechin gallate]
target or test system: SARS-CoV-2 pseudovirus
measure: IC50
endpoint value: 31.3
//
compound: O=c1cc(-c2ccc(O)cc2)oc2cc(O)c(O)c(O)c12
target or test system: SARS-CoV-2 pseudovirus
measure: IC50
endpoint value: 29.3
//
compound: O=c1c(O)c(-c2ccc(O)cc2)oc2cc(O)cc(O)c12
target or test system: SARS-CoV-2 pseudovirus
measure: IC50
endpoint value: 34.6
//
compound: COc1c(O)cc2oc(-c3ccccc3)cc(=O)c2c1O
target or test system: SARS-CoV-2 pseudovirus
measure: IC50
endpoint value: 37.1

Could you now consider this next compound?
Answer with reported IC50 of O=C(O[C@@H]1Cc2c(O)cc(O)cc2O[C@H]1c1cc(O)c(O)c(O)c1)c1cc(O)c(O)c(O)c1 [compound 26, (-)-Gallocatechin gallate]
43.4

* * *

test system: HEK-293T-ACE2^h cells; test: MTT cytotoxicity assay on host cells (4 h); assay type: cell-based, human; conditions: MTT, 4 h
measure: TC50 (concentration reducing cell viability by 50%)

compound: COc1c(O)cc2oc(-c3ccccc3)cc(=O)c2c1O [compound 8, Oroxylin A]
endpoint value: >300 µM
--
compound: C[C@@H]1O[C@@H](OC[C@H]2O[C@@H](Oc3c(-c4ccc(O)c(O)c4)oc4cc(O)cc(O)c4c3=O)[C@H](O)[C@@H](O)[C@@H]2O)[C@H](O)[C@H](O)[C@H]1O [compound 20, Rutin]
endpoint value: >500 µM
--
compound: Oc1cc(O)c2c(c1)O[C@H](c1cc(O)c(O)c(O)c1)[C@H](O)C2 [compound 23, (-)-Epigallocatechin]
endpoint value: 453.10 ± 4.55 µM
--
compound: O=c1cc(-c2ccc(O)cc2)oc2cc(O)c(O)c(O)c12 [compound 9, Scutellarein]
endpoint value: >300 µM
--
compound: O=c1c(O)c(-c2ccc(O)cc2)oc2cc(O)cc(O)c12 [compound 14, Kaempferol]
endpoint value: >200 µM

Now look at this one.
Recall the reported TC50 (concentration reducing cell viability by 50%) of Oc1cc(O)c2c(c1)O[C@H](c1ccc(O)c(O)c1)[C@H](O)[C@H]2c1c(O)cc(O)c2c1O[C@H](c1ccc(O)c(O)c1)[C@@H](O)C2 [compound 27, Procyanidin B-1] on HEK-293T-ACE2^h cells and write it down.
>500 µM

* * *

tested on: HEK-293T-ACE2^h cells; test: MTT cytotoxicity assay on host cells (4 h); type: cell-based, human; conditions: MTT, 4 h
A collection of compounds and their measured TC50 (concentration reducing cell viability by 50%)

Reference set, count: 2
compound: O=c1cc(-c2ccc(O)cc2)oc2c([C@@H]3O[C@H](CO)[C@@H](O)[C@H](O)[C@H]3O)c(O)cc(O)c12
endpoint value: >500 µM
//
compound: O=c1cc(-c2ccccc2)oc2cc(O[C@@H]3O[C@H](CO)[C@@H](O)[C@H](O)[C@H]3O)c(O)c(O)c12
endpoint value: >300 µM

State, in one line, measured TC50 (concentration reducing cell viability by 50%) of COc1c(O[C@@H]2O[C@H](C(=O)O)[C@@H](O)[C@H](O)[C@H]2O)cc(O)c2c(=O)cc(-c3ccccc3)oc12 [compound 13, Wogonoside]
>500 µM

Return TC50 (concentration reducing cell viability by 50%) for the following compound: O=c1cc(-c2ccc(O)c(O)c2)oc2c([C@@H]3O[C@H](CO)[C@@H](O)[C@H](O)[C@H]3O)c(O)cc(O)c12
>500 µM

Using the record for O=c1cc(-c2ccc(O)cc2)oc2cc(O)cc(O)c12 , state its measured TC50 (concentration reducing cell viability by 50%).
90.88 ± 3.13 µM

Provide only the value of recorded TC50 (concentration reducing cell viability by 50%) for Oc1cc(O)c2c(c1)O[C@H](c1ccc(O)c(O)c1)[C@@H](O)[C@@H]2c1c(O)cc(O)c2c1O[C@H](c1ccc(O)c(O)c1)[C@H](O)C2
>500 µM

Return TC50 (concentration reducing cell viability by 50%) (reported value) for this compound: Oc1cc(O)c2c(c1)O[C@H](c1ccc(O)c(O)c1)[C@H](O)C2 [compound 22, (-)-Epicatechin]
>500 µM

* * *

As a worked illustration, we turn to SI (ratio of TC50 to IC50) data collected for SARS-CoV-2 pseudovirus.

Examples with their reported SI (ratio of TC50 to IC50) follow.
compound: O=C(O)[C@H]1O[C@@H](Oc2cc3oc(-c4ccccc4)cc(=O)c3c(O)c2O)[C@H](O)[C@@H](O)[C@@H]1O
endpoint value: >4.56
//
compound: O=C(O[C@@H]1Cc2c(O)cc(O)cc2O[C@@H]1c1ccc(O)c(O)c1)c1cc(O)c(O)c(O)c1 [compound 24, (-)-Epicatechin gallate]
endpoint value: >8.51

Then this compound:
Would you please give the reported SI (ratio of TC50 to IC50) of O=c1c(O)c(-c2ccc(O)cc2)oc2cc(O)cc(O)c12 with SARS-CoV-2 pseudovirus?
>5.77

* * *

tested on: HEK-293T-ACE2^h cells; test: MTT cytotoxicity assay on host cells (4 h); type: cell-based, human; conditions: MTT, 4 h
measure: CC0 (maximum nontoxic concentration) (µM)
Kindly answer with a numeric value in µM, unit omitted.

Would you please look over these solved cases?
molecule: COc1c(O)cc2oc(-c3ccccc3)cc(=O)c2c1O
CC0 (maximum nontoxic concentration) [µM]: 100
//
molecule: Oc1cc(O)c2c(c1)O[C@H](c1ccc(O)c(O)c1)[C@H](O)[C@H]2c1c(O)cc(O)c2c1O[C@H](c1ccc(O)c(O)c1)[C@H](O)[C@H]2c1c(O)cc(O)c2c1O[C@H](c1ccc(O)c(O)c1)[C@H](O)C2
CC0 (maximum nontoxic concentration) [µM]: 300

--- query ---
Answer with the recorded CC0 (maximum nontoxic concentration) for the molecule listed here: COc1c(O[C@@H]2O[C@H](C(=O)O)[C@@H](O)[C@H](O)[C@H]2O)cc(O)c2c(=O)cc(-c3ccccc3)oc12 [compound 13, Wogonoside]
300

* * *

test system: HEK-293T-ACE2^h cells; test: MTT cytotoxicity assay on host cells (4 h); assay type: cell-based, human; conditions: MTT, 4 h
compounds and their reported CC0 (maximum nontoxic concentration)
Write it as a number; the unit µM goes unstated.

compound: O=c1c(O[C@@H]2O[C@H](CO)[C@H](O)[C@H](O)[C@H]2O)c(-c2ccc(O)c(O)c2)oc2cc(O)cc(O)c12 [compound 19, Hyperoside]
readout units: µM
CC0 (maximum nontoxic concentration): 300

compound: O=c1cc(-c2ccc(O)c(O)c2)oc2c([C@@H]3O[C@H](CO)[C@@H](O)[C@H](O)[C@H]3O)c(O)cc(O)c12
readout units: µM
CC0 (maximum nontoxic concentration): 300

compound: O=C(O[C@@H]1Cc2c(O)cc(O)cc2O[C@H]1c1cc(O)c(O)c(O)c1)c1cc(O)c(O)c(O)c1 [compound 26, (-)-Gallocatechin gallate]
readout units: µM
CC0 (maximum nontoxic concentration): 300

Now examine the next entry.
Given O=C(O)[C@H]1O[C@@H](Oc2cc3oc(-c4ccccc4)cc(=O)c3c(O)c2O)[C@H](O)[C@@H](O)[C@@H]1O , respond with its CC0 (maximum nontoxic concentration).
300

* * *

# CC0 (maximum nontoxic concentration) values compiled below
system: HEK-293T-ACE2^h cells; assay: MTT cytotoxicity assay on host cells (4 h); type: cell-based, human; details: MTT, 4 h
// return numeric value only (unit: µM, not printed)

compound: Oc1cc(O)c2c(c1)O[C@H](c1ccc(O)c(O)c1)[C@@H](O)[C@@H]2c1c(O)cc(O)c2c1O[C@H](c1ccc(O)c(O)c1)[C@@H](O)C2
CC0 (maximum nontoxic concentration) / µM: 300
//
compound: C[C@@H]1O[C@@H](OC[C@H]2O[C@@H](Oc3c(-c4ccc(O)c(O)c4)oc4cc(O)cc(O)c4c3=O)[C@H](O)[C@@H](O)[C@@H]2O)[C@H](O)[C@H](O)[C@H]1O
CC0 (maximum nontoxic concentration) / µM: 300
//
compound: Oc1cc(O)c2c(c1)O[C@H](c1cc(O)c(O)c(O)c1)[C@H](O)C2 [compound 23, (-)-Epigallocatechin]
CC0 (maximum nontoxic concentration) / µM: 200
//
compound: CC1OC(OC2C(c3c(O)cc(O)c4c(=O)cc(-c5ccc(O)cc5)oc34)OC(CO)C(O)C2O)C(O)C(O)C1O (stereo not drawn) [compound 6, Vitexin-2″-O-rhamnoside]
CC0 (maximum nontoxic concentration) / µM: 300

Report measured CC0 (maximum nontoxic concentration); entry is O=C(O[C@@H]1Cc2c(O)cc(O)cc2O[C@@H]1c1cc(O)c(O)c(O)c1)c1cc(O)c(O)c(O)c1 [compound 25, (-)-Epigallocatechin gallate]
300

Give the measured CC0 (maximum nontoxic concentration) for O=c1cc(-c2ccccc2)oc2cc(O)cc(O)c12
100
